Assay: in vivo
Conditions: rat, po, 20 mg/kg

compound	unit of measure	bioavailability
NCc1ncc(S(=O)(=O)c2cc(C(=O)O)cc(-c3ccccc3)c2)s1 [Example 126, ditrifluoroacetate]	%	33
